B1: TPR 5TU (parent)
chain: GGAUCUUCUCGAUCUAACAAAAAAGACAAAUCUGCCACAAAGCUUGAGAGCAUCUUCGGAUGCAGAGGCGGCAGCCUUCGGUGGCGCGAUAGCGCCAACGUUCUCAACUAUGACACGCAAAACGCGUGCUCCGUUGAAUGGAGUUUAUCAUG

Variants of: B1
assay.protocol: polymerase ribozyme fitness, log enrichment relative to wild type (log ratio); higher = more active; in vitro selection for triplet polymerase activity
Fewer inactive variants are shown than the library holds.
Record form. Attribute: polymerase ribozyme fitness (log ratio). Fill in for each entry.

response.value for A23U U90C C93U U102G A119U G124A G133U U134C (field: polymerase ribozyme fitness (log ratio)) = ≤ -4.2

Lab note: measured polymerase ribozyme fitness (log ratio) of C14U A28U C96G was ≤ -4.2

Measured polymerase ribozyme fitness (log ratio) of C54A A150G : -3.37

Field polymerase ribozyme fitness (log ratio) (entry C10U C32U G68U G74A U78A G92A C125A G140U U145G ) reads ≤ -4.2

polymerase ribozyme fitness (log ratio) for G58C A73G G84U is -1.97

Record C5U A12U A30C G59C C125G G126U , field polymerase ribozyme fitness (log ratio): ≤ -4.2
